tested on: U2OS; experiment: Multiplex assay against U2OS; format: toxicity, cell-based; settings: human, 24 h, 1 µM, compound concentration 1 uM, replicate 1
Exercise: for every item that follows, state its recorded Population Membrane Permeable-Phenotype (%).
Express it in %; write the number only.

Qu. Find the measured Population Membrane Permeable-Phenotype (%): item CN1CCN2c3ncccc3Cc3ccccc3C2C1 (configuration not stated) , target or system U2OS.
Ans. 5

Qu. Notebook entry, U2OS assay: Population Membrane Permeable-Phenotype (%) of CSc1ccccc1N1CCN(CCCCCC(=O)NC2CCCc3ccccc32)CC1.Cl (configuration not stated) = ?
Ans. 63

Qu. Please provide the recorded Population Membrane Permeable-Phenotype (%) for Cc1ccc(C(C)(O)c2nc3ccccc3s2)c(C)c1 (configuration not stated) , tested on U2OS.
Ans. 4

Qu. Recall the recorded Population Membrane Permeable-Phenotype (%) for Cl.Clc1ccc2nsnc2c1NC1=NCCN1 [TIZANIDINE HYDROCHLORIDE] with U2OS and state it.
Ans. 4

Qu. Provide value of Population Membrane Permeable-Phenotype (%) for this record tested with U2OS: `CN1CCN(c2nc3cc(C(F)(F)F)ccc3n3cccc23)CC1.O=C(O)/C=C\C(=O)O.O=C(O)/C=C\C(=O)O`
Ans. 5

Qu. Request body: readout Population Membrane Permeable-Phenotype (%), system U2OS, query `O=C(O)c1cc2ccccc2c(Cc2c(O)c(C(=O)O)cc3ccccc23)c1O` . Return the value.
Ans. 2

Qu. // map `Oc1c(CN2CCN(c3ccccn3)CC2)cc(Cl)c2cccnc12` to recorded Population Membrane Permeable-Phenotype (%) (system: U2OS)
Ans. 3

Qu. Provide value of Population Membrane Permeable-Phenotype (%) for this record tested with U2OS: `CCOc1c2c(c(OCC)c3ncccc13)CN(c1ccc(CS(=O)(=O)NC(=O)Cc3ccccc3OC)cc1C)C2=O`
Ans. 4

Qu. Item: `N#Cc1c(N)nc(SCc2csc(-c3ccc(Cl)cc3)n2)c(C#N)c1-c1ccc(OCCO)cc1` Test system: U2OS Read-out: Population Membrane Permeable-Phenotype (%) Value: ?
Ans. 9

Qu. Enter reported Population Membrane Permeable-Phenotype (%) observed with U2OS for `CC1(COc2ccc3c(c2)ncn3-c2ccc3cccc(N4CCC(N)CC4)c3n2)COC1`
Ans. 71

Qu. Item: `C[C@H]1[C@H]2CC[C@H]3[C@@H]4CC=C5C[C@@H](N(C)C)CC[C@]5(C)[C@H]4CC[C@]23CN1C` Test system: U2OS Read-out: Population Membrane Permeable-Phenotype (%) Value: ?
Ans. 6

Qu. I'm curious: which Population Membrane Permeable-Phenotype (%) was measured for `CCCn1c(=O)c2[nH]c(C3CCCC3)nc2n(CCC)c1=O` tested on U2OS?
Ans. 5

Qu. Value wanted: Population Membrane Permeable-Phenotype (%) (U2OS) of entry `COc1cc(C(=O)N(CCCc2ccccc2)Cc2ccc(CC(=O)O)cc2)cc(OC)c1C`
Ans. 7

Qu. Given the entry `N[C@@]1(C(=O)O)CO[C@H]2[C@H](C(=O)O)[C@H]21` , what Population Membrane Permeable-Phenotype (%) was observed with U2OS?
Ans. 1

Qu. Give recorded Population Membrane Permeable-Phenotype (%) with U2OS for the following molecule: `CC[C@H]1OC(=O)[C@H](C)[C@@H](O[C@H]2C[C@@](C)(OC)[C@@H](O)[C@H](C)O2)[C@H](C)[C@@H](O[C@@H]2O[C@H](C)C[C@H](N(C)C)[C@H]2O)[C@@]2(C)CC(C)=C(O2)[C@H](C)[C@@H](O)[C@]1(C)O`
Ans. 20

Qu. Form: Entry = `CCNC1(C(N)=O)CCN(c2ncnc3c2nc(-c2ccccc2Cl)n3-c2ccc(Cl)cc2)CC1` | System = U2OS | Population Membrane Permeable-Phenotype (%) = ____
Ans. 11

Qu. Param readout= Population Membrane Permeable-Phenotype (%); system= U2OS; entry= `C[C@H](NC(=O)c1c(C(F)F)nn(C)c1Oc1cccc(C(F)(F)F)c1)c1ccc(C(=O)O)cc1` ; returns value.
Ans. 4
